Data origin, for the record: patent US20200339680A1

# Target: T1, human TMEM106B (human, UniProt Q9NUM4 2-274)
# T1 construct: full-length, transiently expressed on HEK293 cells, or natively expressed on HeLa, U251 and A549 cells (the cell is named under assay); also the source of the Pepscan peptides; also called huTMEM106B; huTMEM
# Experimental details: FACS HEK+huTMEM 0.1 ug/ml (2nd column so headed);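 also: flow cytometry binding of purified anti-TMEM106B mouse IgG to HEK293 cells transiently transfected with TMEM106B, read as median fluorescence intensity on live (propidium iodide-negative) cells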

{"columns": ["Binder", "Unit info", "MFI"],
 "data": [
  ["TM-23 (antibody, V domains shown) VH: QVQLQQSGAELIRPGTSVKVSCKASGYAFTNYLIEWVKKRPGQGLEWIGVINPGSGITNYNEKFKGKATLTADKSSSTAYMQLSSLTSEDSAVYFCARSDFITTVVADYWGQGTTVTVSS VL: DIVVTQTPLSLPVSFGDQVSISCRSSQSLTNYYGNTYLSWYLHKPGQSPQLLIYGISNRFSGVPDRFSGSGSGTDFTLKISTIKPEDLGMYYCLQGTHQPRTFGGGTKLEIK", "MFI", 1100],
  ["TM-29 (antibody, V domains shown) VH: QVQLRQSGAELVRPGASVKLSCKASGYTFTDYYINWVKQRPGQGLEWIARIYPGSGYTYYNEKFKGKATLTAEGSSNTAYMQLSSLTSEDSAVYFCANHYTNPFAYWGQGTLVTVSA VL: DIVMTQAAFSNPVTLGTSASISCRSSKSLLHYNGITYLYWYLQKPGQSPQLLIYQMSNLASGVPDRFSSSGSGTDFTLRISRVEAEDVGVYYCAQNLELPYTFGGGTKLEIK", "MFI", 4050],
  ["TM-10 (antibody, V domains shown) VH: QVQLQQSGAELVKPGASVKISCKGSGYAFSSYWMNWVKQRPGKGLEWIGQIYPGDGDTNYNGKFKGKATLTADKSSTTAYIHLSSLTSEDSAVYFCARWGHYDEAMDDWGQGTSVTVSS VL: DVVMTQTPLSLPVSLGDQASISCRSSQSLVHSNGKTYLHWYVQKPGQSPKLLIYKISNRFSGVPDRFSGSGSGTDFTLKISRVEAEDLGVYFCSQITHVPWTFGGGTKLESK", "MFI", 3360]
]}
